Ref: BindingDB's records for doi:10.1021/jm020429w

Entries and their Ki
Assay method text: Binding affinity towards Opioid receptor delta 1 from guinea pig brain using [3H]naltrindole as radioligand
Measured metric: Ki (nM)

[[record]]
chemical_smiles = "C[C@H]1C2Cc3ccc(Nc4ccc(C(F)(F)F)cc4)cc3[C@@]1(C)CCN2CC1CC1"
measured_value = 180

[[record]]
chemical_smiles = "C[C@H]1C2Cc3ccc(Nc4ccc(N(C)C)cc4)cc3[C@@]1(C)CCN2CC1CC1"
measured_value = 75

[[record]]
chemical_smiles = "COc1ccc(CNc2ccc3c(c2)[C@@]2(C)CCN(CC4CC4)C(C3)[C@@H]2C)cc1"
measured_value = 80

[[record]]
chemical_smiles = "C[C@H]1C2Cc3ccc(NCc4ccc(Cl)cc4)cc3[C@@]1(C)CCN2CC1CC1"
measured_value = 100

[[record]]
chemical_smiles = "Cc1ccc(Nc2ccc3c(c2)[C@@]2(C)CCN(CC4CC4)C(C3)[C@@H]2C)cc1"
measured_value = 6.2

[[record]]
chemical_smiles = "C[C@H]1C2Cc3ccc(Nc4ccc(C(C)(C)C)cc4)cc3[C@@]1(C)CCN2CC1CC1"
measured_value = 61

[[record]]
chemical_smiles = "CC[C@@]12CCN(CC3CC3)C(C(=O)c3ccc(Nc4ccccc4)cc31)[C@@H]2C"
measured_value = 37

[[record]]
chemical_smiles = "C[C@H]1C2Cc3ccc(N=C(c4ccccc4)c4ccccc4)cc3[C@@]1(C)CCN2CC1CC1"
measured_value = 220

[[record]]
chemical_smiles = "C[C@H]1C2C(=O)c3ccc(N)cc3[C@@]1(C)CCN2CC1CC1"
measured_value = 29

[[record]]
chemical_smiles = "C[C@H]1C2Cc3ccc(N(C)C)cc3[C@@]1(C)CCN2CC1CC1"
measured_value = 810

